- measuredOn: UniProtKB P53341
- Sequence (P53341 whole entry): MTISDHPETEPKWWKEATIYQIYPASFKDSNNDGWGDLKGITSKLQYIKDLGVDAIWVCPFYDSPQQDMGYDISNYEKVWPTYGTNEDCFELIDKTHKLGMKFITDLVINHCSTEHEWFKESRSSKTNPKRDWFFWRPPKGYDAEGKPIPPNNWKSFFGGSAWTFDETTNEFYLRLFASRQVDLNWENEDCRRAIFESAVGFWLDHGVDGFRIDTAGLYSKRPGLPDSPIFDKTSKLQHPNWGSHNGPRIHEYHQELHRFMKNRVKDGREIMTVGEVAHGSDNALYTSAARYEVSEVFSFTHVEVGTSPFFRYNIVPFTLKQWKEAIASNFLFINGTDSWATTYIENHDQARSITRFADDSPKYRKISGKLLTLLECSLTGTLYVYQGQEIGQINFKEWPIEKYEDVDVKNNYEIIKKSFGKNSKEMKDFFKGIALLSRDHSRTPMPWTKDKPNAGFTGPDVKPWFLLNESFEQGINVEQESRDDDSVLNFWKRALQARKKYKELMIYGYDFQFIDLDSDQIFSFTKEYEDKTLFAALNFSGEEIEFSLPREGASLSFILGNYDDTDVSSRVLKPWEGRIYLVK
measurementLabel: pKi
Give bare numbers, as −log10 of the molar value.

For N#CC1=C(N)Oc2c(c(=O)[nH]c3ccccc23)C1c1cccc(OCc2cn(Cc3ccccc3)nn2)c1 (stereo not shown) the molecule record lists pKi as 5.89

Origin of the recorded values: paper PMC10324058
